ASSAY NAME: Metabolic stability test: liver microsomal stability assay
Assay type: in vitro ADME, mouse
Starred links: 1 amine or outer side, 2 acyl side, 3 side chain; linkers in the order of their positions; H or OH if unused. Non-standard residues stand in square brackets, D forms with d. Residues, ends and D or L forms follow the SMILES beside them. NMedβ3hAla = C[C@H](CC(=O)[*:2])N(C)[*:1]; NMeF = CN[C@@H](Cc1ccccc1)C(=O)O; NMeI = CC[C@H](C)[C@H](NC)C(=O)O; hPhe = N[C@@H](CCc1ccccc1)C(=O)O; NMeβAla = CN(CCC(=O)[*:2])[*:1]; NMeL = CN[C@@H](CC(C)C)C(=O)O; βAla = NCCC(=O)O
MEASURED QUANTITY: Mouse Hepatic Microsome CLh,int NADPH(-) (µL/min/mg Protein)
Please reply with the bare figure in µL/min/mg Protein and do not write the unit itself.

// query Which Mouse Hepatic Microsome CLh,int NADPH(-) value is on record for CC[C@H](C)[C@@H]1NC(=O)[C@H](CC(C)C)N(C)C(=O)[C@H](CC(C)C)NC(=O)CCN(C)C(=O)C[C@@H](C)N(C)C(=O)[C@H](CC(C)C)N(C)C(=O)CNC(=O)[C@@H]2CCCN2C(=O)[C@H](CC(C)C)N(C)C(=O)CCNC(=O)[C@H]([C@@H](C)CC)N(C)C(=O)[C@H](CCc2ccccc2)NC(=O)[C@H](Cc2ccccc2)N(C)C1=O [pd141] (cyclo(G[NMeL][NMedβ3hAla][NMeβAla]L[NMeL]I[NMeF][hPhe][NMeI][βAla][NMeL]P)) ?
// result 21.1

====

ASSAY NAME: Membrane permeability test using Caco-2 cells with preincubation
Format: in vitro ADME
APPLIED CONDITIONS: Caco-2; preincubation 20 to 24 hours; Apical FaSSIF/HBSS pH 6.0, Basal HBSS 4% BSA pH 7.4; 180 minutes; read-out: Caco2 Papp
Starred links: 1 amine or outer side, 2 acyl side, 3 side chain; linkers in the order of their positions; H or OH if unused. Positions of bridges follow the written chain, without caps; N, C: chain ends. Non-standard residues stand in square brackets, D forms with d. Residues, ends and D or L forms follow the SMILES beside them. *: point of attachment. NMeF = CN[C@@H](Cc1ccccc1)C(=O)O; NMeGABA = CN(CCCC(=O)[*:2])[*:1]; NMeI = CC[C@H](C)[C@H](NC)C(=O)O; hPhe = N[C@@H](CCc1ccccc1)C(=O)O; NMeβAla = CN(CCC(=O)[*:2])[*:1]; NMeL = CN[C@@H](CC(C)C)C(=O)O; NMeV = CN[C@H](C(=O)O)C(C)C; d(β3hA) = C[C@@H](N)CC(=O)O; NMeAbu = CC[C@H](NC)C(=O)O; NMeA = CN[C@@H](C)C(=O)O; Piperidide = C1CCN(*)CC1; Abu = CC[C@H](N)C(=O)O; Sar = CNCC(=O)O; tBu = CC(C)(C)*
MEASURED QUANTITY: Papp A→B (×10⁻⁶ cm/s)
Form entry: value (×10⁻⁶ cm/s) — number only.

// query GET /values?readout=Papp A→B&item= CC[C@@H]1NC(=O)[C@H](Cc2ccccc2)N(C)C(=O)[C@H](COC(C)(C)C)NC(=O)[C@H](CC(C)C)N(C)C(=O)[C@H](C(C)C)NC(=O)CN(C)C(=O)[C@H]([C@@H](C)O)NC(=O)[C@H](CC(C)C)N(C)C(=O)[C@H](C(C)C)NC(=O)[C@H](Cc2ccccc2)N(C)C(=O)[C@H](C)N(C)C(=O)[C@@H](C)NC(=O)C[C@@H](C)NC(=O)[C@H](C(C)C)N(C)C1=O [pd008] (cyclo([Abu][NMeV][d(β3hA)][dA][NMeA][NMeF]V[NMeL]T[Sar]V[NMeL]S(tBu)[NMeF]))
// result 0.04

// query Try CC[C@@H]1NC(=O)[C@H](CC(C)C)N(C)C(=O)[C@H]([C@@H](C)CC)NC(=O)CN(C)C(=O)C[C@@H](C)NC(=O)[C@H](C(C)C)N(C)C(=O)[C@H](COC(C)(C)C)NC(=O)[C@H](CC(C)C)N(C)C(=O)[C@H](Cc2ccccc2)N(C)C(=O)[C@H](C)NC(=O)[C@H](C(C)C)NC(=O)CN(C)C(=O)[C@H]([C@@H](C)O)NC(=O)[C@H](CC(C)C)N(C)C1=O [pd011] (cyclo(A[NMeF][NMeL]S(tBu)[NMeV][d(β3hA)][Sar]I[NMeL][Abu][NMeL]T[Sar]V)) next.
// result 0.11

// query Record: CC[C@H](C)[C@@H]1NC(=O)[C@H](C)N(C)C(=O)[C@H]([C@@H](C)O)NC(=O)[C@H](Cc2ccccc2)N(C)C(=O)[C@H](COC(C)(C)C)NC(=O)[C@H](CC(C)C)N(C)C(=O)[C@H](CCc2ccccc2)NC(=O)[C@@H]2CCCN2C(=O)[C@H]([C@@H](C)CC)NC(=O)[C@H](CC(C)C)N(C)C(=O)CCCN(C)C(=O)C[C@@H](C(=O)N2CCCCC2)NC(=O)[C@H](CC(C)C)N(C)C1=O [pd102] ([NMeGABA][NMeL]IP[hPhe][NMeL]S(tBu)[NMeF]T[NMeA]I[NMeL]D-Piperidide; lactam N-13)
// result 0.09

// query And CC[C@H](C)[C@H]1C(=O)N[C@@H]([C@@H](C)O)C(=O)N(C)CC(=O)N(C)[C@@H](CC(C)C)C(=O)N(C)[C@@H](Cc2ccccc2)C(=O)N[C@H](C(=O)N2CCCCC2)CC(=O)N(C)[C@@H](C)C(=O)N[C@@H](CC(C)C)C(=O)N(C)[C@@H](Cc2ccccc2)C(=O)N(C)CCC(=O)N(C)[C@@H](CC(C)C)C(=O)N[C@@H](CC(C)C)C(=O)N(C)[C@@H](C)C(=O)N(C)[C@@H](CC)C(=O)N1C [pd003] ([NMeA]L[NMeF][NMeβAla][NMeL]L[NMeA][NMeAbu][NMeI]T[Sar][NMeL][NMeF]D-Piperidide; lactam N-14) ?
// result 0.27
